Reported values of pIC50 for individual entries
Target: SARS-CoV-2 3CL^pro (Severe acute respiratory syndrome coronavirus 2, UniProt P0DTD1)
Experiment: biochemical
Settings: pH 7.4
// pIC50 here means minus log10 of the molar concentration (mol/L)

Recall the recorded pIC50 for CCCCCC/C=C\CCCCCCCCCc1cccc(O)c1C(=O)O with SARS-CoV-2 3CL^pro (Severe acute respiratory syndrome coronavirus 2, UniProt P0DTD1) and state it.
5.92

Recall the recorded pIC50 for CCCCCC/C=C\CCCCCCCc1cccc(O)c1C(=O)O with SARS-CoV-2 3CL^pro (Severe acute respiratory syndrome coronavirus 2, UniProt P0DTD1) and state it.
5.46

Further cases:
Record CCCCCCCCCCCCCc1cccc(O)c1C(=O)O : what is its pIC50 with SARS-CoV-2 3CL^pro (Severe acute respiratory syndrome coronavirus 2, UniProt P0DTD1)?
5.45
